# Species on record: Rattus norvegicus
# test-name: Open TG-GATES - Regimen: Single
# Assay type: toxicity, organism-based, Sprague-Dawley
# Set-up: regimen Single, gender Male, age 6 weeks
# measurement-setup: in vivo, po, 300 mg/kg, 9 h, tissue Blood, route gavage, dose level Middle
Documented PT across a set of compounds
Express it in s; write the number only.

# annotated cases, reported PT shown
{"sample-smiles": "O=C(OC[C@H]1O[C@@H](OC(=O)c2cc(O)c(O)c(OC(=O)c3cc(O)c(O)c(O)c3)c2)[C@H](OC(=O)c2cc(O)c(O)c(OC(=O)c3cc(O)c(O)c(O)c3)c2)[C@@H](OC(=O)c2cc(O)c(O)c(OC(=O)c3cc(O)c(O)c(O)c3)c2)[C@@H]1OC(=O)c1cc(O)c(O)c(OC(=O)c2cc(O)c(O)c(O)c2)c1)c1cc(O)c(O)c(OC(=O)c2cc(O)c(O)c(O)c2)c1", "PT, s": 12.1}
{"sample-smiles": "Cc1nnc2n1-c1ccc(Cl)cc1C(c1ccccc1Cl)=NC2", "PT, s": 13.5}
{"sample-smiles": "COC(=O)C1=C(C)NC(C)=C(C(=O)OC)C1c1ccccc1[N+](=O)[O-]", "PT, s": 14.6}
{"sample-smiles": "CNC(=C[N+](=O)[O-])NCCSCc1ccc(CN(C)C)o1", "PT, s": 12.7}

Now for another entry.
Quick one: PT of CN/C(=N/CCSCc1nc[nH]c1C)NC#N ? 13.9

* * *

Documented TP across a set of molecules
# Organism: Rattus norvegicus
# test-name: Open TG-GATES - Regimen: Daily Repeat
# Type: toxicity, organism-based, Sprague-Dawley
# Design: regimen Daily Repeat, gender Male, age 6 weeks
# measurement-setup: in vivo, po, 100 mg/kg, 72 h, tissue Plasma, route gavage, dose level Low, time 3 day
Express it in g/dL; write the number only.

# annotated cases, reported TP shown
{"molecule": "Cc1nnc2n1-c1ccc(Cl)cc1C(c1ccccc1Cl)=NC2 [TRIAZOLAM]", "TP [g/dL]": 5.5}
{"molecule": "O=C(OC[C@H]1O[C@@H](OC(=O)c2cc(O)c(O)c(OC(=O)c3cc(O)c(O)c(O)c3)c2)[C@H](OC(=O)c2cc(O)c(O)c(OC(=O)c3cc(O)c(O)c(O)c3)c2)[C@@H](OC(=O)c2cc(O)c(O)c(OC(=O)c3cc(O)c(O)c(O)c3)c2)[C@@H]1OC(=O)c1cc(O)c(O)c(OC(=O)c2cc(O)c(O)c(O)c2)c1)c1cc(O)c(O)c(OC(=O)c2cc(O)c(O)c(O)c2)c1 [TANNIC ACID]", "TP [g/dL]": 5.7}
{"molecule": "CN/C(=N/CCSCc1nc[nH]c1C)NC#N [CIMETIDINE]", "TP [g/dL]": 5.6}

Quick one: TP of COC(=O)C1=C(C)NC(C)=C(C(=O)OC)C1c1ccccc1[N+](=O)[O-] [NIFEDIPINE] ? 5.7

Quick one: TP of CCOc1ccc(NC(C)=O)cc1 [PHENACETIN] ? 5.8

Quick one: TP of CNC(=C[N+](=O)[O-])NCCSCc1ccc(CN(C)C)o1 [RANITIDINE] ? 5.7

* * *

Documented Bas across a set of compounds
# Species on record: Rattus norvegicus
# test-name: Open TG-GATES - Regimen: Daily Repeat
# Format: toxicity, organism-based, Sprague-Dawley
# Set-up: regimen Daily Repeat, gender Male, age 6 weeks
# measurement-setup: in vivo, po, 0 mg/kg, […], tissue Blood, route gavage, dose level Control, time 7 day
Express it in %; write the number only.

{"compound": "COC(=O)C1=C(C)NC(C)=C(C(=O)OC)C1c1ccccc1[N+](=O)[O-] [NIFEDIPINE]", "output-unit": "%", "Bas": 0.4}

Quick one: Bas of CN1C(=O)CCS(=O)(=O)C1c1ccc(Cl)cc1 (stereo not drawn) [CHLORMEZANONE] ? 0

Quick one: Bas of NC1=NC(=O)C(c2ccccc2)O1 (stereo not drawn) [PEMOLINE] ? 0.2
